- assayed_system: human ROCKα/ROCKII mix (Homo sapiens)
- Construct: purchased Upstate Biotechnology 14-451
- Sequence (O75116 11-552 limits assumed): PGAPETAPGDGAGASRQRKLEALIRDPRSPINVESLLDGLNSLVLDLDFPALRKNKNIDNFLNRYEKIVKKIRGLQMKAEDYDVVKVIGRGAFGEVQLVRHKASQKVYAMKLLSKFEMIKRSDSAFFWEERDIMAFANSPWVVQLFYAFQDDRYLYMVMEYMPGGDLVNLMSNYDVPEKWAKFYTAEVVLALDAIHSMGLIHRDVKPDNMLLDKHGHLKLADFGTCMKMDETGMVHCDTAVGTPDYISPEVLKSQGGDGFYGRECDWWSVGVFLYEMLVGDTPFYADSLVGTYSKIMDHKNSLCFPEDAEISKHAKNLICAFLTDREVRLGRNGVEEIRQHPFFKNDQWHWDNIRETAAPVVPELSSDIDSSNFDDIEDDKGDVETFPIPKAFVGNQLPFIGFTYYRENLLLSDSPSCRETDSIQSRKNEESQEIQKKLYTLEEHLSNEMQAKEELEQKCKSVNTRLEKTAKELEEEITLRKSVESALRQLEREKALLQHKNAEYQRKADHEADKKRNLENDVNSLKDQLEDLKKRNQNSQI
- procedure_summary: Biochemical assay for ROCK (fluorescence polarization, ROCK IMAP Kit)
- particulars: Table 2, compounds of Formula XIII
Counter-ions that a name gives are not always drawn.
Parameter: IC50. Scope: all listed entries.
attribute_measured: IC50

{"columns": ["compound", "attribute_measured", "result"],
 "data": [
  ["CCN(CC)c1ccc(C(=O)NCC(N)c2ccc(C(=O)Nc3ccncc3)cc2)cc1 (stereo not shown)", "IC50", "0.5 to 5 µM"],
  ["NC(CNC(=O)CCc1cccnc1)c1ccc(C(=O)Nc2ccncc2)cc1 (stereo not shown)", "IC50", "0.5 to 5 µM"],
  ["COc1ccccc1C(=O)NCC(N)c1ccc(C(=O)Nc2ccncc2)cc1 (stereo not shown)", "IC50", "0.5 to 5 µM"],
  ["NC(CNC(=O)c1cnccn1)c1ccc(C(=O)Nc2ccncc2)cc1 (stereo not shown)", "IC50", "0.5 to 5 µM"],
  ["CCCOc1ccc(C(=O)NCC(N)c2ccc(C(=O)Nc3ccncc3)cc2)cc1 (stereo not shown)", "IC50", "0.5 to 5 µM"],
  ["NC(CNC(=O)CCC1CCCC1)c1ccc(C(=O)Nc2ccncc2)cc1 (stereo not shown)", "IC50", "0.05 to 0.5 µM"],
  ["NC(CNC(=O)c1ccnc2ccccc12)c1ccc(C(=O)Nc2ccncc2)cc1 (stereo not shown)", "IC50", "0.5 to 5 µM"],
  ["NC(CNC(=O)c1ccc(Cl)cc1)c1ccc(C(=O)Nc2ccncc2)cc1 (stereo not shown)", "IC50", "0.5 to 5 µM"],
  ["CC(C)(C(=O)NCC(N)c1ccc(C(=O)Nc2ccncc2)cc1)c1ccsc1 (stereo not shown)", "IC50", "0.05 to 0.5 µM"],
  ["NC(CNC(=O)c1cccc(Oc2ccccc2)c1)c1ccc(C(=O)Nc2ccncc2)cc1 (stereo not shown)", "IC50", "0.5 to 5 µM"],
  ["NC(CNC(=O)C1(c2ccc(F)c(F)c2)CC1)c1ccc(C(=O)Nc2ccncc2)cc1 (stereo not shown)", "IC50", "0.05 to 0.5 µM"],
  ["Cn1cccc1C(=O)NCC(N)c1ccc(C(=O)Nc2ccncc2)cc1 (stereo not shown)", "IC50", "0.5 to 5 µM"],
  ["NC(CNC(=O)C1(c2ccc(Cl)c(Cl)c2)CCC1)c1ccc(C(=O)Nc2ccncc2)cc1 (stereo not shown)", "IC50", "0.05 to 0.5 µM"],
  ["NC(CNC(=O)Cc1ccc(-c2ccccc2)cc1)c1ccc(C(=O)Nc2ccncc2)cc1 (stereo not shown)", "IC50", "0.5 to 5 µM"],
  ["Cc1cccc(CC(=O)NCC(N)c2ccc(C(=O)Nc3ccncc3)cc2)c1 (stereo not shown)", "IC50", "0.05 to 0.5 µM"],
  ["NC(CNC(=O)C1(c2ccc(Cl)cc2)CC1)c1ccc(C(=O)Nc2ccncc2)cc1 (stereo not shown) [Compound 168, dihydrochloride]", "IC50", "0.05 to 0.5 µM"]
]}

====

- assayed_system: PKC epsilon (Homo sapiens, UniProt Q02156)
- Construct: purchased Invitrogen P2282
- Sequence (Q02156 whole entry): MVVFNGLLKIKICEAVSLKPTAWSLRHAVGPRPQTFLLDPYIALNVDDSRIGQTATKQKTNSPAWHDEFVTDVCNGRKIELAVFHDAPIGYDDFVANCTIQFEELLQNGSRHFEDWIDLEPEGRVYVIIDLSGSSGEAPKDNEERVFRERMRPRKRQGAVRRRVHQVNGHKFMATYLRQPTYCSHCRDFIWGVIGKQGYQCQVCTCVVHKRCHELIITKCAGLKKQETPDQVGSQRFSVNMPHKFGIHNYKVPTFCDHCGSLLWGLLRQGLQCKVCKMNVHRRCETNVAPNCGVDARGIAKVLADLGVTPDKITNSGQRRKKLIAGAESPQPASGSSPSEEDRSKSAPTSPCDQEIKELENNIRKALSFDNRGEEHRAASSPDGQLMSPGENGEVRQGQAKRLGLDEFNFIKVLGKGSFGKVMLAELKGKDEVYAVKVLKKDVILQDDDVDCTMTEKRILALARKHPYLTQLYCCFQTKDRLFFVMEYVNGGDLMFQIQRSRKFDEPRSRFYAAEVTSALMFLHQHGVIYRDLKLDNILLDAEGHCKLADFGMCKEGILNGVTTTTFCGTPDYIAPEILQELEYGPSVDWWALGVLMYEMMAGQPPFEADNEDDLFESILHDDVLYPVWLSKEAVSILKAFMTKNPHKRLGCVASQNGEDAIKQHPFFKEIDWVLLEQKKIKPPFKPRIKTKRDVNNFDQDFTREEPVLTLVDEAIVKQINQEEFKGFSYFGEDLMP
- procedure_summary: Biochemical assay for PKC epsilon (fluorescence polarization, Protein Kinase C Assay Kit, Red)
- particulars: Table 2, compounds of Formula XIII; read-out: IC50 μM PKCε
// reported IC50 for each item listed

{"columns": ["molecule", "IC50"],
 "data": [
  ["CC(C)(C(=O)NCC(N)c1ccc(C(=O)Nc2ccncc2)cc1)c1ccc(F)c(Cl)c1 (stereo not shown)", "< 0.05 µM"],
  ["NC(CNC(=O)c1ccc2[nH]ccc2c1)c1ccc(C(=O)Nc2ccncc2)cc1 (stereo not shown)", "0.5 to 5 µM"],
  ["CC(C)(C)ON=Cc1cccc(C(=O)NCC(N)c2ccc(C(=O)Nc3ccncc3)cc2)c1 (racemic)", "0.5 to 5 µM"],
  ["NC(CNC(=O)C1CCCO1)c1ccc(C(=O)Nc2ccncc2)cc1 (stereo not shown)", "5 to 50 µM"]
]}
